JAK2 kinase domain (Homo sapiens, UniProt O60674): reported IC50 for various compounds.
Sequence (O60674 849-1124 limits assumed): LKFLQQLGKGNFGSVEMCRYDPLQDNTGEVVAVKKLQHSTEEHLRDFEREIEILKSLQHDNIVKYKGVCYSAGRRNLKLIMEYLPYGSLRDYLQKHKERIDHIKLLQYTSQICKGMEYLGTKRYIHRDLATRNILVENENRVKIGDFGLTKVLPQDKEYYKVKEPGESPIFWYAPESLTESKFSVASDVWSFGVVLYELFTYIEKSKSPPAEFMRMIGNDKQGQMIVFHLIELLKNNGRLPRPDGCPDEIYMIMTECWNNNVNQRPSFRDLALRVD
// return numeric value only (unit: nM, not printed)

input-smiles: Cc1ccc(Cl)cc1-c1[nH]c(-c2nc(N)ncc2C#CC(C)(C)O)cc1C(N)=O
IC50 (nM): 16

Now for another entry.
Ask: Reported IC50 for JAK2 kinase domain (Homo sapiens, UniProt O60674), given `Cc1ccc(Cl)cc1-c1[nH]c(-c2nc(N)ncc2C#CCN(C)C)cc1C(N)=O` ?
Reply: 11

---

- tested-on: Lyn full length (Homo sapiens, UniProt P07948)
- Sequence (P07948 whole entry): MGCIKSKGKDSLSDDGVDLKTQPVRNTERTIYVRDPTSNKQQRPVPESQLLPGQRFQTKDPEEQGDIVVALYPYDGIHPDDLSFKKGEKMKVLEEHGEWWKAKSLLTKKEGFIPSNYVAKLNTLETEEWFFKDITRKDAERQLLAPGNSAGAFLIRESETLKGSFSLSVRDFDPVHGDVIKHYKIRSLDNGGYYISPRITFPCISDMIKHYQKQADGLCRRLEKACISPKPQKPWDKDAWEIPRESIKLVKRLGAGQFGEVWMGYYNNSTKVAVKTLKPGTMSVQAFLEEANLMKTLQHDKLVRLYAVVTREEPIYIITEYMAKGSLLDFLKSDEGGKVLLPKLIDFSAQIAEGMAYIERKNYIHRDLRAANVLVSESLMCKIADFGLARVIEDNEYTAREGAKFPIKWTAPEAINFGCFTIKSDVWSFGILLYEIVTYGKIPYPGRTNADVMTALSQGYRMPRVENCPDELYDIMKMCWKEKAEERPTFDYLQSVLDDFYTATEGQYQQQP
Please respond with Y when measured IC50 is strictly beneath 5 nM, and with N in all other cases.

input-smiles: Cc1ccc(Cl)cc1-c1[nH]c(-c2nc(N)ncc2C#Cc2ccc(CN3CCCCC3)cc2)cc1C(N)=O
label: Y

Please find the next molecule below.
Ask: Could you please tell me whether IC50 recorded for `COc1ccc(NC2CCN(C)CC2)cc1C#Cc1cnc(N)nc1-c1cc(C(N)=O)c(-c2cc(Cl)ccc2C)[nH]1` is less than 5 nM?
Reply: N

---

- Tested on: JAK2 dependent human megakaryoblastic leukemia cell line SET-2
- test-name: Cell proliferation assay (CellTiter-Glo, 72 hours)
- Assay type: cell-based
- conditions-used: Homo sapiens, SET-2 cells
measured-metric: IC50 (nM)
// return numeric value only (unit: nM, not printed)

Worked cases, answers included:
molecule: Cc1ccc(Cl)cc1-c1[nH]c(-c2ccnc(N)n2)c(C#Cc2ccc(N3CCC(N(C)C)CC3)cc2)c1C(N)=O [compound 96]
IC50 / nM: 210
//
molecule: Cc1ccc(Cl)cc1-c1[nH]c(-c2ccnc(N)n2)c(C#Cc2cccc(NC3CCN(C)CC3)c2)c1C(N)=O [compound 80]
IC50 / nM: 780
//
molecule: Cc1ccc(Cl)cc1-c1[nH]c(-c2nc(N)ncc2C#Cc2ccc(N3CCN(C)CC3)cc2)cc1C(N)=O [compound 11]
IC50 / nM: 90

Ask: Reported IC50 for JAK2 dependent human megakaryoblastic leukemia cell line SET-2, given Cc1ccc(Cl)cc1-c1[nH]c(-c2nc(N)ncc2C#Cc2ccc(N3CCC[C@H]3CN3CCCC3)cc2)cc1C(N)=O [compound 31] ?
Reply: 310

Ask: Reported IC50 for JAK2 dependent human megakaryoblastic leukemia cell line SET-2, given Cc1ccc(Cl)cc1-c1[nH]c(-c2nc(N)ncc2C#Cc2cccc(N)c2)cc1C(N)=O [compound 4] ?
Reply: 150

Ask: Reported IC50 for JAK2 dependent human megakaryoblastic leukemia cell line SET-2, given Cc1ccc(Cl)cc1-c1[nH]c(-c2nc(N)ncc2C#Cc2ccc(N3CCC(O)CC3)cc2)cc1C(N)=O [compound 28] ?
Reply: 330

Ask: Reported IC50 for JAK2 dependent human megakaryoblastic leukemia cell line SET-2, given Cc1ccc(Cl)cc1-c1[nH]c(-c2nc(N)ncc2C#Cc2ccc(N3CCC(N4CCN(C)CC4)CC3)cc2)cc1C(N)=O [compound 25] ?
Reply: 170

---

- Test system: JAK2 dependent human megakaryoblastic leukemia cell line SET-2
- test-name: Cell proliferation assay (CellTiter-Glo, 72 hours)
- Type: cell-based
- conditions-used: Homo sapiens, SET-2 cells
measured-metric: IC50 (nM)
// return numeric value only (unit: nM, not printed)

molecule: Cc1ccc(Cl)cc1-c1[nH]c(-c2nc(N)ncc2C#Cc2ccc(CN3CCCC3)cc2)cc1C(N)=O [compound 66]
IC50 / nM: 190

Ask: Find the recorded IC50 belonging to Cc1ccc(Cl)cc1-c1[nH]c(-c2ccnc(N)n2)c(C#Cc2ccccc2NCCN(C)C)c1C(N)=O [compound 87] and report it.
Reply: 290

Ask: Find the recorded IC50 belonging to COc1ccccc1C#Cc1cnc(N)nc1-c1cc(C(N)=O)c(-c2cc(Cl)ccc2C)[nH]1 [compound 5] and report it.
Reply: 750

Ask: Find the recorded IC50 belonging to COc1ccc(N2CCN(C)CC2)cc1C#Cc1c(-c2ccnc(N)n2)[nH]c(-c2cc(Cl)ccc2C)c1C(N)=O [compound 86] and report it.
Reply: 210
